Values were extracted from patent US20230124361A1.

Target: STING (Homo sapiens, UniProt Q86WV6, G230A/H232R/R293Q/R71H)
Sequence (Q86WV6 whole entry R71H/G230A/H232R/R293Q): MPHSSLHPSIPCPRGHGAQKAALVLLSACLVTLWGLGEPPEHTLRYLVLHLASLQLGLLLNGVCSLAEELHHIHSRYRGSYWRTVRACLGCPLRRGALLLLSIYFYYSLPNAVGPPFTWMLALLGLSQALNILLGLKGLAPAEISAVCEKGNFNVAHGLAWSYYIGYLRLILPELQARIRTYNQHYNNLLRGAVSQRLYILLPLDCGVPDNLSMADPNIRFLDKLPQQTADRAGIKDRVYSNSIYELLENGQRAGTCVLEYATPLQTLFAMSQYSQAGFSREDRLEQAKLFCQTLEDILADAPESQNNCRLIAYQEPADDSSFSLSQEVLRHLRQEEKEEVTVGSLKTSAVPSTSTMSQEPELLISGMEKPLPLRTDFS
Experiment: Reporter gene expression assay in THP1-Dual cells (IRF pathway Lucia luciferase, 2',3'-cGAMP stimulation)
Details: 10 min preincubation, 5 μM 2',3'-cGAMP, 20 hr, IRF reporter QUANTI-Luc, read-out: THP-1 (HAQ) Activity
pIC50: −log10 of the molar value.
Measured pIC50, listed per entry.

# compound, pIC50
data = [
    ("O=C(Nc1ccc2c(c1)OCC(=O)N2Cc1nnco1)Nc1ccc2cc[nH]c2c1", "< 5.00"),
]

Qu. Form: Entry = NC(=O)c1cccc(CN2C(=O)COc3cc(NC(=O)Nc4ccc5cc[nH]c5c4)ccc32)c1 [Example 155] | System = STING (Homo sapiens, UniProt Q86WV6, G230A/H232R/R293Q/R71H) | pIC50 = ____
Ans. < 5.00

Qu. Form: Entry = O=C(Nc1ccc(F)cc1)Nc1ccc2c(c1)N(Cc1ccncc1)C(=O)CS2 | System = STING (Homo sapiens, UniProt Q86WV6, G230A/H232R/R293Q/R71H) | pIC50 = ____
Ans. < 5.00

Qu. Form: Entry = C=CCC1COc2ccc(NC(=O)Nc3ccc4cc[nH]c4c3)cc2N1Cc1ccccc1 (stereo not shown) | System = STING (Homo sapiens, UniProt Q86WV6, G230A/H232R/R293Q/R71H) | pIC50 = ____
Ans. ≥ 6.00

---

Biological target: STING (Homo sapiens, UniProt Q86WV6, G230A/H232R/R293Q/R71H)
Test: Reporter gene expression assay in THP1-Dual cells (IRF pathway Lucia luciferase, 2',3'-cGAMP stimulation)
Settings: 10 min preincubation, 5 μM 2',3'-cGAMP, 20 hr, IRF reporter QUANTI-Luc, read-out: THP-1 (HAQ) Activity
test_readout: IC50

Worked examples, 7 molecules total:
# molecule, assay_target, IC50
rows = [
    ("O=C1CSc2ccc(N3CCN(c4ccc5cc[nH]c5c4)CC3)cc2N1Cc1ccccc1", "STING (Homo sapiens, UniProt Q86WV6, G230A/H232R/R293Q/R71H)", "1 to 10 µM"),
    ("O=C(Nc1ccc2c(c1)SCCN2Cc1c(F)cccc1Cl)Nc1ccc2cc[nH]c2c1", "STING (Homo sapiens, UniProt Q86WV6, G230A/H232R/R293Q/R71H)", "≤ 1 µM"),
    ("O=C(Cc1ccco1)Nc1ccc2c(c1)N(Cc1ccccc1)C(=O)CS2", "STING (Homo sapiens, UniProt Q86WV6, G230A/H232R/R293Q/R71H)", "> 10 µM"),
    ("Cc1cc(CN2C(=O)COc3cc(NC(=O)Nc4ccc5cc[nH]c5c4)ccc32)ccc1F", "STING (Homo sapiens, UniProt Q86WV6, G230A/H232R/R293Q/R71H)", "≤ 1 µM"),
    ("Cn1ccc2ccc(NC(=O)Nc3ccc4c(c3)N(Cc3ccccc3)C(=O)CS4)cc21", "STING (Homo sapiens, UniProt Q86WV6, G230A/H232R/R293Q/R71H)", "> 10 µM"),
    ("O=C(Nc1ccc2c(c1)N(Cc1ccccc1)C(CCO)CO2)Nc1ccc2cc[nH]c2c1 (centres unmarked)", "STING (Homo sapiens, UniProt Q86WV6, G230A/H232R/R293Q/R71H)", "1 to 10 µM"),
    ("NC(=O)CC1Sc2ccc(NC(=O)Nc3ccc4cc[nH]c4c3)cc2N(Cc2ccccc2)C1=O (centres unmarked)", "STING (Homo sapiens, UniProt Q86WV6, G230A/H232R/R293Q/R71H)", "1 to 10 µM"),
]

Turning now to a further record.
Qu. Look up IC50: O=C(Nc1ccc2c(c1)NCCO2)Nc1ccc2c(c1)N(Cc1ccccc1)C(=O)CS2
Ans. 1 to 10 µM
